target: IKZF2 (Homo sapiens, UniProt Q96SW2+Q9UKS7); construct: expressed in transfected cells; host or cells: HEK293T (lentiviral transduction, puromycin selection, FACS sorting); test: Flow cytometry for measuring degradation, HEK293T GFP-POI reporter cells (IKZF2); assay type: cell-based; conditions: 100 nM, 24 h, HEK293T GFP reporter
Sequence (Q9UKS7 whole entry): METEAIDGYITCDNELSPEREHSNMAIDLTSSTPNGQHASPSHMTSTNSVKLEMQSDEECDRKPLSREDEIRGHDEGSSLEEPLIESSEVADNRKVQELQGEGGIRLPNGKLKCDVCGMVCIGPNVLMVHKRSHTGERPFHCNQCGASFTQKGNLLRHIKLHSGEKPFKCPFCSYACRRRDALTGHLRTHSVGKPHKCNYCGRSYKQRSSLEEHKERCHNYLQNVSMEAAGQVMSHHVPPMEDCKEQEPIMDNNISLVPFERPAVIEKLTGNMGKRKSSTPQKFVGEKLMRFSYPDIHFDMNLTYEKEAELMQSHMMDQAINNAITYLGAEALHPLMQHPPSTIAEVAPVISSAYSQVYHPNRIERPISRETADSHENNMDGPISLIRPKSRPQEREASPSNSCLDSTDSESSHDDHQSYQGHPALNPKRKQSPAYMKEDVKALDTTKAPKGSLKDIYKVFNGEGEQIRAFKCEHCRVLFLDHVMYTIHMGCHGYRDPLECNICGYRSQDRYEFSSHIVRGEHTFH
Sequence (Q96SW2 whole entry): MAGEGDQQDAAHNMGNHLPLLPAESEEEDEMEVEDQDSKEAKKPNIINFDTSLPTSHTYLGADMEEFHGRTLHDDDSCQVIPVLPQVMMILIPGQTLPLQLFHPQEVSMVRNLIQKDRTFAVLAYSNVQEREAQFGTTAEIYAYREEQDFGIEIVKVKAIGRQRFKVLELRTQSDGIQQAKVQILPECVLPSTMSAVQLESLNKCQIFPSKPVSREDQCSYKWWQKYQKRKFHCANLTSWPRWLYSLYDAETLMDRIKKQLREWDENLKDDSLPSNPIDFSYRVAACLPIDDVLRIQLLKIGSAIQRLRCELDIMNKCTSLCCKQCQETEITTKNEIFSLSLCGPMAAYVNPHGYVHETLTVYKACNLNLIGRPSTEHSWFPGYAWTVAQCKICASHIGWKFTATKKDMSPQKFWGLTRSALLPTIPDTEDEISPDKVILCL
Sequence (Q16531 whole entry partner): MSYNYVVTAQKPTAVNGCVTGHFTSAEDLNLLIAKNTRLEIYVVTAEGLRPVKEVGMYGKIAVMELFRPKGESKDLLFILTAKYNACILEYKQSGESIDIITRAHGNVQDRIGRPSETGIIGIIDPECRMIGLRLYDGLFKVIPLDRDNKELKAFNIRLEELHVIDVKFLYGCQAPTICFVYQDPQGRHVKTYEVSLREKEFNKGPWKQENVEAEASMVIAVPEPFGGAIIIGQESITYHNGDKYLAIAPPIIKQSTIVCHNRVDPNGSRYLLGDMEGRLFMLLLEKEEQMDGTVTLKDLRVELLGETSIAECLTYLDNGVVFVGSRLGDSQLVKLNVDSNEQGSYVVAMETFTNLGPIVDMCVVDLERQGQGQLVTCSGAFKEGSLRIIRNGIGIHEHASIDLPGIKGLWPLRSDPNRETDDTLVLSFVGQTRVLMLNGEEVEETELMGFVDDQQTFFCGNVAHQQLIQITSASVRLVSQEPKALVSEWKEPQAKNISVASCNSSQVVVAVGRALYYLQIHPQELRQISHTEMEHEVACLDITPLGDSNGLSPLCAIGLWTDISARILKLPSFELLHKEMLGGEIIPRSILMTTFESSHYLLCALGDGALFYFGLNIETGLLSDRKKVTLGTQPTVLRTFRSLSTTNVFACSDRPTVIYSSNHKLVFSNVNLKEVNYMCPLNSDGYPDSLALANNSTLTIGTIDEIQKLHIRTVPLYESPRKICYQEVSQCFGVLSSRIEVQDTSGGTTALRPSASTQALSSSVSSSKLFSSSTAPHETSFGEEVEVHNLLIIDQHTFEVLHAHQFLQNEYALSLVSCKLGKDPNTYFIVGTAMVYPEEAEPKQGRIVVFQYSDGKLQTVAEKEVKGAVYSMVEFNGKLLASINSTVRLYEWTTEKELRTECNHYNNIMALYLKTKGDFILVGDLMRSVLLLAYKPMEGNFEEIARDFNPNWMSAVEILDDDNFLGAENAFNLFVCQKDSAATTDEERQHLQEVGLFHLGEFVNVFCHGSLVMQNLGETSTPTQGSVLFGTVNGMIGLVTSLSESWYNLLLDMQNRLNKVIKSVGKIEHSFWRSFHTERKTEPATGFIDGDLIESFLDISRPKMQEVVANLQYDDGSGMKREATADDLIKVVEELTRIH
Exercise: for every item that follows, state its recorded IKZF2% degradation at 100 nM.
Numbers only, in %.

INSERT INTO measurements (molecule, recorded_value) VALUES
  ('O=C1CCC(N2Cc3cc(NC(=O)Cc4ccc5ccccc5c4)ccc3C2=O)C(=O)N1 (stereo not shown)', 93.8),
  ('COc1cc(C(=O)Nc2ccc3c(c2)CN(C2CCC(=O)NC2=O)C3=O)ccc1Oc1ccccc1 (stereo not shown)', 81.8),
  ('CN1C(=O)COc2cc(C(=O)Nc3ccc4c(c3)CN(C3CCC(=O)NC3=O)C4=O)ccc21 (stereo not shown)', 51.8),
  ('COc1ccc2c(c1)OCC(C(=O)Nc1ccc3c(c1)CN(C1CCC(=O)NC1=O)C3=O)=C2 (stereo not shown)', 57.1),
  ('Cc1ccc2c(c1)OCC(C(=O)Nc1ccc3c(c1)CN(C1CCC(=O)NC1=O)C3=O)=C2 (stereo not shown)', 72.6),
  ('COc1cc(Oc2ccccc2)ccc1C(=O)Nc1ccc2c(c1)CN(C1CCC(=O)NC1=O)C2=O (stereo not shown)', 54.6);

State the recorded IKZF2% degradation at 100 nM for every item in the following list.
1. O=C1CCC(N2Cc3cc(NC(=O)C4=Cc5ccc(OC(F)(F)F)cc5OC4)ccc3C2=O)C(=O)N1 (stereo not shown)
2. COc1ccc2c(CC(=O)Nc3ccc4c(c3)CN(C3CCC(=O)NC3=O)C4=O)cccc2c1 (stereo not shown)
3. O=C(/C=C/c1ccccc1)Nc1ccc2c(c1)CN(C1CCC(=O)NC1=O)C2=O (stereo not shown)
4. O=C1CCC(N2Cc3cc(NC(=O)c4ccc(Oc5ccccc5)cc4)ccc3C2=O)C(=O)N1 (stereo not shown)

1: 85.4; 2: 93; 3: 70.8; 4: 78.4

* * *

target: CK1α (Homo sapiens, UniProt P48729+Q96SW2); construct: expressed in transfected cells; host or cells: HEK293T (lentiviral transduction, puromycin selection, FACS sorting); test: Flow cytometry for measuring degradation, HEK293T GFP-POI reporter cells (CK1α); assay type: cell-based; conditions: 100 nM, 24 h, HEK293T GFP reporter
Sequence (P48729 whole entry): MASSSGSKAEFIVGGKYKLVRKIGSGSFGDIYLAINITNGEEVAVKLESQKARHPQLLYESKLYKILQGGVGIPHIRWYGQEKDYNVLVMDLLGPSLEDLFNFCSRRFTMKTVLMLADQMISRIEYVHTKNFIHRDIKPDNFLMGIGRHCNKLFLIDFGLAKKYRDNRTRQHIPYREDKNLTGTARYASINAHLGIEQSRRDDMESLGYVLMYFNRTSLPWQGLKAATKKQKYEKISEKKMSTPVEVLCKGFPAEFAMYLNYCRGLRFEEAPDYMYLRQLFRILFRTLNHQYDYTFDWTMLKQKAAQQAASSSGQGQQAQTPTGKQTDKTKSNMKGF
Sequence (Q96SW2 whole entry): as the sequence (Q96SW2 whole entry) above
Sequence (Q16531 whole entry partner): as the sequence (Q16531 whole entry partner) above
Exercise: for every item that follows, state its recorded CK1α % degradation at 100 nM.
Answers are plain numbers, in %.

Before answering, review these 5 worked examples.
INSERT INTO assay_data (compound, readout_name, unit_of_measurement, recorded_value) VALUES
  ('O=C1CCC(N2Cc3cc(NC(=O)c4ccc5occc5c4)ccc3C2=O)C(=O)N1 (stereo not drawn)', 'CK1α % degradation at 100 nM', '%', 50.2),
  ('COc1ccc2c(c1)OCC(C(=O)Nc1ccc3c(c1)CN(C1CCC(=O)NC1=O)C3=O)=C2 (stereo not drawn)', 'CK1α % degradation at 100 nM', '%', 59.5),
  ('O=C1CCC(N2Cc3cc(NC(=O)c4ccc5c(c4)OCO5)ccc3C2=O)C(=O)N1 (stereo not drawn)', 'CK1α % degradation at 100 nM', '%', 33.5),
  ('COc1ccc(CCC(=O)Nc2ccc3c(c2)CN(C2CCC(=O)NC2=O)C3=O)cc1 (stereo not drawn)', 'CK1α % degradation at 100 nM', '%', 40.3),
  ('COc1cccc2c1OCC(C(=O)Nc1ccc3c(c1)CN(C1CCC(=O)NC1=O)C3=O)=C2 (stereo not drawn)', 'CK1α % degradation at 100 nM', '%', 68.6);

State the recorded CK1α % degradation at 100 nM for every item in the following list.
1. C[C@H](NC(=O)c1ccccc1)C(=O)Nc1ccc2c(c1)CN(C1CCC(=O)NC1=O)C2=O (stereo partly drawn)
2. COc1cc(C(=O)Nc2ccc3c(c2)CN(C2CCC(=O)NC2=O)C3=O)ccc1Oc1ccccc1 (stereo not drawn)
3. O=C1CCC(N2Cc3cc(NC(=O)Cc4cccc5ccccc45)ccc3C2=O)C(=O)N1 (stereo not drawn)
4. O=C1CCC(N2Cc3cc(NC(=O)C4=Cc5ccc(C(F)(F)F)cc5OC4)ccc3C2=O)C(=O)N1 (stereo not drawn)
5. COc1ccc2c(CC(=O)Nc3ccc4c(c3)CN(C3CCC(=O)NC3=O)C4=O)cccc2c1 (stereo not drawn)

1: 18.2; 2: 64.1; 3: 64.4; 4: 66.3; 5: 63.4
